Test system: HepG2
Test: cytotoxicity call (relative viability < 0.9)
Settings: 10 µM
Among all 39,000 compounds or so, about 3,300 (8.5%) were called active. The sample holds actives, similar compounds and a random draw of the others, so the mix is not that of the screen.
The categories you may choose from are True (active), False (inactive)

Please indicate how the test categorized C[C@H](CO)N1C[C@H](C)[C@H](CN(C)CC2CCCCC2)Oc2ccc(NC(=O)CCCCCC(=O)Nc3ccccc3N)cc2C1=O .
True

Please indicate how the test categorized CC(C)(C)[S@](=O)N1Cc2cc(C(=O)NCCN3CCCCC3)nc(-c3cccc(-c4ccc(C#N)cc4)c3)c2[C@@H]1CCO .
False

Please indicate how the test categorized C=CCC[C@@H](Cc1ccc(F)cc1)C(=O)OC[C@@H](NC(=O)[C@@H](CC=C)CC(=O)N[C@@H](CO)Cc1ccccc1)C(C)(C)C .
False

Please indicate how the test categorized C=CCC[C@@H](Cc1ccc(F)cc1)C(=O)OC[C@@H](Cc1ccccc1)NC(=O)[C@H](CC=C)CC(=O)N[C@@H](CO)Cc1ccccc1 .
False

Please indicate how the test categorized C[C@H]1CN([C@@H](C)CO)C(=O)c2cc(NS(=O)(=O)c3ccccc3)ccc2O[C@H]1CN(C)Cc1ccc(Oc2ccccc2)cc1 .
False

Please indicate how the test categorized CC(C)[C@H](NC(=O)[C@H](C)N(C)C)C(=O)N1CC[C@@H]2Oc3ccc(cc3)/C=C\NC(=O)[C@H](Cc3ccccc3)NC(=O)[C@H]21 .
False

Please indicate how the test categorized C[C@@H]1CN([C@@H](C)CO)C(=O)c2cc(NS(=O)(=O)c3ccccc3)ccc2O[C@@H]1CN(C)Cc1ccc(Oc2ccccc2)cc1 .
True

Please indicate how the test categorized CC12CCC3c4ccc(O)cc4CCC3C1CC(O)C2O (stereo unspecified) .
False

Please indicate how the test categorized C[C@@H]1CN([C@H](C)CO)C(=O)c2cc(NC(=O)CCCCCC(=O)Nc3ccccc3N)ccc2O[C@H]1CN(C)CC1CCCCC1 .
False

Please indicate how the test categorized C[C@@H]1CN([C@@H](C)CO)C(=O)c2cc(NC(=O)CCCCCC(=O)Nc3ccccc3N)ccc2O[C@@H](C)CCCCO[C@@H]1CN(C)CC1CCCCC1 .
False

Please indicate how the test categorized C[C@@H]1CN([C@H](C)CO)C(=O)Cc2cc(NC(=O)CCCCCC(=O)Nc3ccccc3N)ccc2O[C@@H]1CN(C)CC1CCCCC1 .
False

Please indicate how the test categorized C=CCC[C@H](Cc1ccc(F)cc1)C(=O)OC[C@@H](NC(=O)[C@@H](CC=C)CC(=O)N[C@H](CO)Cc1ccccc1)C(C)(C)C .
False

Please indicate how the test categorized C[C@H](CO)N1C[C@H](C)[C@@H](CN(C)C(=O)Cc2ccccc2)OCCCC[C@H](C)Oc2ccc(NC(=O)Cc3ccccc3)cc2C1=O .
False

Please indicate how the test categorized C#CC1(O)CCC2C3CCc4cc(O)ccc4C3CCC21C (stereo unspecified) .
True

Please indicate how the test categorized C#CC1(O)CCC2C3CCc4cc(OC5CCCC5)ccc4C3CCC21C (stereo unspecified) .
False

Please indicate how the test categorized C=CC[C@H](CC(=O)N[C@@H](CO)Cc1ccccc1)C(=O)N[C@@H](COC(=O)[C@@H](CC=C)Cc1ccc(F)cc1)Cc1ccccc1 .
False

Please indicate how the test categorized C#CC1(O)CCC2C3CCC4=CCCCC4C3C(=C)CC21CC (stereo unspecified) .
False

Please indicate how the test categorized C[C@@H]1CCCCO[C@H](CN(C)C(=O)c2ccccc2)[C@@H](C)CN([C@H](C)CO)C(=O)c2cc(NS(=O)(=O)c3ccccc3)ccc2O1 .
False

Please indicate how the test categorized CC12CCC3c4ccc(O)cc4CCC3C1CCC2=O (stereo unspecified) .
False

Please indicate how the test categorized C[C@H](O)C#Cc1ccc2c(c1)O[C@@H](CN(C)C(=O)c1ccccc1)[C@@H](C)CN([C@H](C)CO)S2(=O)=O .
False

Please indicate how the test categorized C[C@@H]1CN([C@@H](C)CO)C(=O)Cc2cc(NC(=O)Cn3cnnn3)ccc2O[C@H]1CN(C)C(=O)Nc1ccccc1 .
False

Please indicate how the test categorized C[C@@H]1CN([C@@H](C)CO)C(=O)c2cc(NC(=O)CCCCCC(=O)Nc3ccccc3N)ccc2O[C@@H]1CN(C)CC1CCCCC1 .
False

Please indicate how the test categorized COc1ccc([C@@H](O)[C@@H](CCO)OC)cc1O .
False

Please indicate how the test categorized C#CC1(O)CCC2C3CCC4=C(CCC(=O)C4)C3CCC21C (stereo unspecified) .
False

Please indicate how the test categorized C[C@H](CO)N1C[C@H](C)[C@H](CN(C)S(=O)(=O)c2ccc(C#N)cc2)Oc2ncc(-c3ccc(F)cc3)cc2C1=O .
False

Please indicate how the test categorized C[C@@H]1CN([C@@H](C)CO)C(=O)c2cc(NC(=O)CCCCCC(=O)Nc3ccccc3N)ccc2O[C@H]1CN(C)CC1CCCCC1 .
False

Please indicate how the test categorized Cc1ccc(S(=O)(=O)Nc2ccc3c(c2)C(=O)N([C@@H](C)CO)C[C@@H](C)[C@@H](CN(C)S(=O)(=O)c2ccc(F)cc2)O3)cc1 .
False

Please indicate how the test categorized CC(C)CN1C(=O)[C@@]2(c3ccc([N+](=O)[O-])cc3)CC(=O)N(CC3C4CC5CC(C4)CC3C5)[C@@H]2c2ccc(CO)cc21 (stereo partly specified) .
False

Please indicate how the test categorized CCc1ccc(/C=C2\SC(=O)N(CCCCCCNC(=O)c3ccccc3Nc3ccc([N+](=O)[O-])c4nonc34)C2=O)cc1 .
True

Please indicate how the test categorized C#CC1(O)CCC2C3CCC4=CCCCC4C3CCC21C (stereo unspecified) .
True

Please indicate how the test categorized COCC(=O)Nc1ccccc1C(=O)O .
False

---

Tested on: HepG2
Experiment: cytotoxicity call (relative viability < 0.9)
Details: 10 µM
Hit rate of the full screen: of about 39,000 compounds, about 3,300 (8.5%) were called active. The full list was thinned out, with actives kept by preference.
The categories you may choose from are 1 (yes) (active), 0 (no) (inactive)

Please indicate how the test categorized C[C@@H]1CN([C@H](C)CO)S(=O)(=O)c2ccc(C#Cc3ccc(F)cc3)cc2O[C@@H]1CN(C)S(=O)(=O)c1ccc(F)cc1 .
0 (no)

Please indicate how the test categorized C[C@@H]1CN([C@H](C)CO)S(=O)(=O)c2ccc(C#Cc3ccc(F)cc3)cc2O[C@H]1CN(C)S(=O)(=O)c1ccc(F)cc1 .
0 (no)

Please indicate how the test categorized C[C@@H]1CN([C@@H](C)CO)S(=O)(=O)c2ccc(C#Cc3ccncc3)cc2O[C@H]1CN(C)S(=O)(=O)c1ccc(F)cc1 .
1 (yes)

Please indicate how the test categorized CC(C)CC#Cc1ccc2c(c1)O[C@@H](CN(C)S(=O)(=O)c1ccc(F)cc1)[C@H](C)CN([C@H](C)CO)S2(=O)=O .
0 (no)

---

Test system: HepG2
Assay: cytotoxicity call (relative viability < 0.9)
Settings: 10 µM
Out of some 39,000 compounds screened, about 3,300 (8.5%) were called active. For the sample, actives were picked, then their nearest neighbours and some compounds at random.
quantity.kind: cytotoxicity call

> print(dat)
                                   molecule      quantity.kind  measured.value
1  C[C@@H]1CN([C@H](C)CO)C(=O)c2cc(NC(=O)CCN3CCOCC3)ccc2O[C@@H]1CN(C)Cc1ccccc1  cytotoxicity call        inactive
2  C[C@@H]1CCCCO[C@@H](CN(C)C(=O)Nc2ccc3c(c2)OCO3)[C@H](C)CN([C@H](C)CO)C(=O)c2cc(NC(=O)C3CCCCC3)ccc2O1  cytotoxicity call        inactive
3  CCC(=O)N1CCN(c2ccc(-n3c(=O)ccc4cnc5ccc(-c6cnc7ccccc7c6)cc5c43)cc2C(F)(F)F)CC1  cytotoxicity call          active
4  COc1ccc(CN(C)C[C@H]2OCCCC[C@H](C)Oc3ccc(NC(=O)Nc4cccc5ccccc45)cc3C(=O)N([C@H](C)CO)C[C@@H]2C)cc1  cytotoxicity call        inactive
5         CC1(C)CCC2=C(O1)C(=O)c1ccccc1C2=O  cytotoxicity call        inactive
6  C[C@H]1CN([C@@H](C)CO)C(=O)c2cccc(NC(=O)Nc3ccc(C(F)(F)F)cc3)c2O[C@@H]1CN(C)C(=O)Nc1cccc2ccccc12  cytotoxicity call          active
7  COc1ccc(CN(C)C[C@@H]2OCCCC[C@@H](C)Oc3ccc(NC(=O)Nc4cccc5ccccc45)cc3C(=O)N([C@H](C)CO)C[C@H]2C)cc1  cytotoxicity call          active
8  COc1ccc(CN(C)C[C@@H]2OCCCC[C@H](C)Oc3ccc(NC(=O)Nc4cccc5ccccc45)cc3C(=O)N([C@H](C)CO)C[C@@H]2C)cc1  cytotoxicity call        inactive

Would you mind telling me what cytotoxicity call value was observed for C=C(C)CNc1nc(-c2ccccc2)c(-c2ccccc2)s1 ?
inactive

Would you mind telling me what cytotoxicity call value was observed for COCC#Cc1ccc2c(c1)O[C@H](CN(C)C(=O)Nc1ccccc1F)[C@@H](C)CN([C@H](C)CO)S2(=O)=O ?
inactive

Would you mind telling me what cytotoxicity call value was observed for Cc1cc(O)cc(=O)o1 ?
inactive

Would you mind telling me what cytotoxicity call value was observed for C[C@H](CO)N1C[C@H](C)[C@@H](CN(C)S(=O)(=O)c2ccc(F)cc2)Oc2ccc(NC(=O)Cn3cnnn3)cc2C1=O ?
inactive

Would you mind telling me what cytotoxicity call value was observed for C[C@@H]1CN([C@H](C)CO)C(=O)c2cccc(NC(=O)C3CCOCC3)c2O[C@H]1CN(C)Cc1ccc(C(=O)O)cc1 ?
inactive

Would you mind telling me what cytotoxicity call value was observed for Cc1cccnc1[C@H](c1ccc(F)cc1)N(C)C(=O)C1CCN(CCOc2ccc(Cl)cc2Cl)CC1 ?
inactive

Would you mind telling me what cytotoxicity call value was observed for C[C@H]1CN([C@@H](C)CO)C(=O)c2cccc(NC(=O)Nc3ccc(C(F)(F)F)cc3)c2O[C@H]1CN(C)C(=O)Nc1cccc2ccccc12 ?
inactive

Would you mind telling me what cytotoxicity call value was observed for COCC(=O)Nc1ccc2c(c1)C(=O)N(C)C[C@@H](OC)[C@H](C)CN(C(=O)Nc1ccccc1F)[C@H](C)CO2 ?
inactive

Would you mind telling me what cytotoxicity call value was observed for COc1ccc(CN(C)C[C@@H]2OCCCC[C@H](C)Oc3ccc(NC(=O)Nc4cccc5ccccc45)cc3C(=O)N([C@@H](C)CO)C[C@H]2C)cc1 ?
active

Would you mind telling me what cytotoxicity call value was observed for C[C@H](CO)N1C[C@H](C)[C@@H](CN(C)Cc2ccncc2)Oc2cc(C#CCN(C)C)ccc2S1(=O)=O ?
inactive

Would you mind telling me what cytotoxicity call value was observed for O=C(O)[C@H]1CCS(=O)(=O)C1 ?
inactive

Would you mind telling me what cytotoxicity call value was observed for O=C(O)CN(CCN(CC(=O)O)CC(=O)O)CC(=O)O.[Na+].[Na+] ?
inactive

Would you mind telling me what cytotoxicity call value was observed for CCS(=O)(=O)N1C[C@]2(CCN(CC2)C(=O)c2cccnc2)c2c(n(c3cc(ccc23)OC)C)[C@H]1CO ?
inactive

Would you mind telling me what cytotoxicity call value was observed for Cc1ccc(S(=O)(=O)Nc2cccc3c2O[C@H](CN(C)C(=O)Nc2ccc(C(F)(F)F)cc2)[C@H](C)CN([C@H](C)CO)C3=O)cc1 ?
inactive

Would you mind telling me what cytotoxicity call value was observed for Cc1sc(Nc2ccccc2)nc1-c1ccc(Cl)cc1 ?
active

Would you mind telling me what cytotoxicity call value was observed for Cc1ccccc1OC[C@@H](O)CO ?
inactive

Would you mind telling me what cytotoxicity call value was observed for Cc1ccc(S(=O)(=O)Nc2ccc3c(c2)C(=O)N([C@H](C)CO)C[C@H](C)[C@@H](CN(C)C(=O)Cc2ccccc2)OCCCC[C@H](C)O3)cc1 ?
inactive

Would you mind telling me what cytotoxicity call value was observed for COc1ccc(NC(=O)N(C)C[C@@H]2OCCCC[C@H](C)Oc3ccc(NS(=O)(=O)c4ccc(Cl)cc4)cc3C(=O)N([C@H](C)CO)C[C@@H]2C)cc1 ?
inactive

Would you mind telling me what cytotoxicity call value was observed for COc1ccc(S(=O)(=O)Nc2ccc3c(c2)C(=O)N([C@H](C)CO)C[C@H](C)[C@H](CN(C)C(=O)Nc2ccc(F)cc2)OCCCC[C@@H](C)O3)cc1 ?
inactive

Would you mind telling me what cytotoxicity call value was observed for C[C@@H]1CN([C@H](C)CO)C(=O)c2cc(NC(=O)Nc3ccc(F)cc3)ccc2O[C@@H](C)CCCCO[C@@H]1CN(C)S(=O)(=O)c1ccc(F)cc1 ?
inactive

Would you mind telling me what cytotoxicity call value was observed for C[C@@H]1CN([C@@H](C)CO)C(=O)Cc2cc(NS(=O)(=O)c3cccs3)ccc2O[C@H]1CN(C)S(=O)(=O)c1ccc(F)cc1 ?
inactive

Would you mind telling me what cytotoxicity call value was observed for Cc1nc(-c2ccc(Cl)cc2)c(-c2ccccc2)s1 ?
active

Would you mind telling me what cytotoxicity call value was observed for O=C(C[C@@H]1CC[C@@H]2[C@H](COC[C@H](O)CN2C(=O)Nc2cccc(F)c2)O1)NCCCN1CCOCC1 ?
inactive

Would you mind telling me what cytotoxicity call value was observed for Cc1ccccc1OCC(O)CO (configuration not stated) ?
active
